These data points were gathered from patent US20150105252A1.

Reported Plant response rating (scale of 0 to 100), Foxtail, Giant values follow for various compounds
System: foxtail, giant
Assay: Test C preemergence
Type: in vivo, Setaria faberii
Conditions: Preemergence, 250 g ai/ha
Kindly provide the number alone.

Reference set, count: 3
compound="CCc1cc(C(=O)NCC(F)(F)F)nn1Cc1ccnc(C(F)(F)F)c1 [Compound 78]" observed=100
compound="CCCc1cc(C(=O)NCC)nn1Cc1cc(C(F)(F)F)nn1C [Compound 129]" observed=100
compound="CCCc1cc(C(=O)NCC)nn1Cc1ccnc(C(F)(F)F)c1 [Compound 95]" observed=100

Consider the record given below.
In: Endpoint output: Plant response rating (scale of 0 to 100), Foxtail, Giant of CCCNC(=O)c1cc(CC)n(Cc2ccnc(OC(F)F)c2)n1 [Compound 132] . Value?
Out: 100
